- MEASURED_ON: PI3Kα H1047R (T47D cells) (Homo sapiens, UniProt P42336, H1047R)
- Construct: endogenous in cells; host or cells: T47D cells
- Sequence (P42336 whole entry H1047R): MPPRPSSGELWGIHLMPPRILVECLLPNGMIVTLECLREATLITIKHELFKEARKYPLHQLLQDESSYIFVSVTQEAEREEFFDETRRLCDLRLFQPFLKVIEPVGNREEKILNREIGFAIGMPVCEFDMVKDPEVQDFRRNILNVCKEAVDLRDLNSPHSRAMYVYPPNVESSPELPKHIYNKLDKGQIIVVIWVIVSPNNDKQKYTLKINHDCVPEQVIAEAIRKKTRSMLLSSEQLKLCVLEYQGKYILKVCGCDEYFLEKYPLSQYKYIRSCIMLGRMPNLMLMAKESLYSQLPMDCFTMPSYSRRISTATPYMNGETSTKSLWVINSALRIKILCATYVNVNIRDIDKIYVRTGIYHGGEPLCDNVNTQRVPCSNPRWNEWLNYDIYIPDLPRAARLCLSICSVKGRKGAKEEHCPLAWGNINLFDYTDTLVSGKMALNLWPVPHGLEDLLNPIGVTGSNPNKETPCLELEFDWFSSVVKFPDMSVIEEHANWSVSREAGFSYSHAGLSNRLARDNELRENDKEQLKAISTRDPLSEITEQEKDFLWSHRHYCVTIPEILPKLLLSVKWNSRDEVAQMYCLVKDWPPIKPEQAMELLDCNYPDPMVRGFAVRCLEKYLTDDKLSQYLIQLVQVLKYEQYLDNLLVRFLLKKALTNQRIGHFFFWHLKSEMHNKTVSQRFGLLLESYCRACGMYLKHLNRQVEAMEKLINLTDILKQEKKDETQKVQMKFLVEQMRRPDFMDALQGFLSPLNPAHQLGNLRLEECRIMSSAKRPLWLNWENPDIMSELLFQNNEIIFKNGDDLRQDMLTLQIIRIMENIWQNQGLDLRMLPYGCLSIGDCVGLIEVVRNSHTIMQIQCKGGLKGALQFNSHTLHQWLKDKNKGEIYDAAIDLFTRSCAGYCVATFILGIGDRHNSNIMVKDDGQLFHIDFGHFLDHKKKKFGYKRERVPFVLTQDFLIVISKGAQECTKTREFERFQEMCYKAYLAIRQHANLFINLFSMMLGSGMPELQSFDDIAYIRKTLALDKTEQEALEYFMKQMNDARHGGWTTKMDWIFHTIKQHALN
- Sequence (P27986 whole entry partner): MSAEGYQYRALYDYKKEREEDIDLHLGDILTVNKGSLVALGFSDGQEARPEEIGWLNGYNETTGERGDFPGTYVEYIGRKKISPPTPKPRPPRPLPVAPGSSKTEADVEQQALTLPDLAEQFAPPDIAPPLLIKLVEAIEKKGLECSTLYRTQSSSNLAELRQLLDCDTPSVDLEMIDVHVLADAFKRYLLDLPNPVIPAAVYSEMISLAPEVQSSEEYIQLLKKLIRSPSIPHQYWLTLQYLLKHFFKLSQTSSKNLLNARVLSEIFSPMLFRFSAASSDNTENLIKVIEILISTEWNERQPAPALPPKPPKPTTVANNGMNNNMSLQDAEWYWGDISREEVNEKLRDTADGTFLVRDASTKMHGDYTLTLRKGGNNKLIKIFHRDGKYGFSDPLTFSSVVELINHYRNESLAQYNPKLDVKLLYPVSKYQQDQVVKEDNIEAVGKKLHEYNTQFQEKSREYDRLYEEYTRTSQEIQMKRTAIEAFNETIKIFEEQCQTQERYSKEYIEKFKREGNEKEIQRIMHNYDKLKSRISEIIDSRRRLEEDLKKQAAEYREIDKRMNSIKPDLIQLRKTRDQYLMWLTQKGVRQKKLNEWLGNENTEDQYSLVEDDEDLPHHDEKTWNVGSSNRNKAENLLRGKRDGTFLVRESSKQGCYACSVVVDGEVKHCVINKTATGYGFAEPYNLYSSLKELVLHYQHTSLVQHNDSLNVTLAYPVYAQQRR
- ASSAY_NOTES: PI3Kα cellular assay: pAKT HTRF in T47D cells after EGF stimulation
- Assay type: cell-based
- RUN_PARAMETERS: T47D cells (PI3Kα H1047R), pAKT S473 HTRF, EGF stimulation
Task for the reader: assign each of the following molecules its reported IC50.

(Q) Endpoint output: IC50 of Cc1cc([C@@H](C)Nc2ccccc2C(=O)O)c2nc(-c3ccc(C4CC4)nc3)cc(=O)n2c1 [Compound 1111] . Value?
(A) < 100 nM

(Q) Endpoint output: IC50 of Cc1cc([C@H](C)Nc2ccccc2C(=O)O)c2nc(-c3ccc4c(C)cn(C)c4c3)c(C)c(=O)n2c1 [Compound 985] . Value?
(A) > 2000 nM

(Q) Endpoint output: IC50 of Cc1cc([C@@H](C)Nc2ccccc2C(=O)O)c2nc(-c3cnc(C)c(Cl)c3)c(C)c(=O)n2c1 [Compound 1052] . Value?
(A) 100 to 500 nM

(Q) Endpoint output: IC50 of Cc1cc([C@H](C)Nc2ccccc2-c2ccnnc2)c2nc(-c3cccnc3)c(C)c(=O)n2c1 [Compound 1145] . Value?
(A) 100 to 500 nM

(Q) Endpoint output: IC50 of Cc1cc(C(C)Nc2ccccc2C(=O)O)c2nc(-c3ccc4c(c3)CC(F)(F)C4)c(C)c(=O)n2c1 (stereo not drawn) [Compound 833] . Value?
(A) 100 to 500 nM

(Q) Endpoint output: IC50 of Cc1cc([C@@H](C)Nc2ccccc2S(N)(=O)=O)c2nc(-c3cccnc3)c(C)c(=O)n2c1 [Compound 1107] . Value?
(A) < 100 nM

(Q) Endpoint output: IC50 of Cc1cc([C@@H](C)N[C@@H]2CCCC[C@@H]2C(=O)O)c2nc(N3CCOCC3)cc(=O)n2c1 [Compound 905] . Value?
(A) > 2000 nM

(Q) Endpoint output: IC50 of Cc1cc(C(C)Nc2ccccc2-c2ccnnc2)c2nc(-c3cccnc3)c(C)c(=O)n2c1 (stereo not drawn) [Compound 1143] . Value?
(A) 100 to 500 nM

(Q) Endpoint output: IC50 of Cc1cc([C@@H](C)Nc2cccc3onc(O)c23)c2nc(-c3cccc(F)c3)c(C)c(=O)n2c1 (single isomer, unassigned) [Compound 1374] . Value?
(A) 100 to 500 nM

---

- MEASURED_ON: PI3Kα H1047R (T47D cells) (Homo sapiens, UniProt P42336, H1047R)
- Construct: endogenous in cells; host or cells: T47D cells
- ASSAY_NOTES: PI3Kα cellular assay: pAKT HTRF in T47D cells after EGF stimulation
- Type: cell-based
- RUN_PARAMETERS: T47D cells (PI3Kα H1047R), pAKT S473 HTRF, EGF stimulation
pIC50: −log10 of the molar value.
Task for the reader: assign each of the following molecules its reported pIC50.

(Q) Endpoint output: pIC50 of Cc1cc([C@@H](C)Nc2ccccc2S(N)(=O)=O)c2nc(C3CCCOC3)c(C)c(=O)n2c1 (stereo partly shown) [Compound 1283] . Value?
(A) < 5.70

(Q) Endpoint output: pIC50 of Cc1cc(C(C)N(C)c2ccccc2S(N)(=O)=O)c2nc(N3Cc4ccccc4C3)cc(=O)n2c1 (stereo not shown) [Compound 836] . Value?
(A) < 5.70

(Q) Endpoint output: pIC50 of C=CC(=O)Nc1ccc(C(=O)O)c(N[C@@H](C)c2cc(C)cn3c(=O)c(C)c(N4Cc5ccccc5C4)nc23)c1 [Compound 1122] . Value?
(A) < 5.70

(Q) Endpoint output: pIC50 of Cc1cc([C@H](C)Nc2ccccc2S(N)(=O)=O)c2nc(-c3ccc4c(c3)c(C)nn4C3CC3)c(C)c(=O)n2c1 [Compound 962] . Value?
(A) < 5.70

(Q) Endpoint output: pIC50 of Cc1cc([C@@H](C)Nc2ccccc2C(=O)O)c2nc(-c3ccc4c(C)nn(C)c4c3)cc(=O)n2c1 [Compound 819] . Value?
(A) > 7.00

(Q) Endpoint output: pIC50 of Cc1cc([C@H](C)Nc2ccccc2C(=O)O)c2nc(-c3ccc4c(c(N)nn4C)c3C)cc(=O)n2c1 [Compound 703] . Value?
(A) < 5.70

(Q) Endpoint output: pIC50 of Cc1cc(C(C)Nc2ccccc2C(N)=O)c2nc(-c3cnc(C)c(Cl)c3)c(C)c(=O)n2c1 (stereo not shown) [Compound 1094] . Value?
(A) 6.30 to 7.00

Data provenance is patent US20260132129A1.
